# EXPERIMENTAL_PROTOCOL: Anticomplement activity in New Zealand White rabbit erythrocytes assessed as concentration required for 50% hemolytic inhibition by alternative pathway after 30 mins
# Assay type: functional, cell-based
# STUDY_CONDITIONS: Oryctolagus cuniculus, Erythrocyte
REPORTED_METRIC: AP50 (mM)
The reply should contain only the number, in mM.

The following compounds have reported results that may help.
Prompt: I have this compound here, C[C@@]12C[C@@]3(O)O[C@@H](O1)[C@]1(COC(=O)c4ccccc4)[C@@H]3C[C@]12O[C@@H]1O[C@H](COC(=O)c2cc(O)c(O)c(O)c2)[C@@H](O)[C@H](O)[C@H]1O , and I need its recorded AP50.
Response: 0.32

Prompt: I have this compound here, C[C@@]12C[C@@]3(O)OC(O1)[C@]1(COC(=O)c4ccc(O)cc4)[C@@H]3C[C@@]21O[C@@H]1O[C@H](COC(=O)c2ccccc2)[C@@H](O)[C@H](O)[C@H]1O , and I need its recorded AP50.
Response: 0.85

Prompt: I have this compound here, COc1ccc(C(=O)OC[C@H]2O[C@@H](O[C@]34C[C@@H]5[C@@]6(O)C[C@]3(C)OC(O6)[C@]54COC(=O)c3ccc(O)cc3)[C@H](O)[C@@H](O)[C@@H]2O)cc1 , and I need its recorded AP50.
Response: 0.97

---
Prompt: I have this compound here, C[C@@]12C[C@@]3(O)O[C@@H](O1)[C@]1(COC(=O)c4ccc(O)cc4)[C@H]3C[C@@]12O[C@@H]1O[C@H](COC(=O)c2ccc(O)cc2)[C@@H](O)[C@H](O)[C@H]1O , and I need its recorded AP50.
Response: 0.67

Prompt: I have this compound here, C[C@@]12C[C@@]3(O)OC(O1)[C@]1(COC(=O)c4ccc(O)cc4)[C@@H]3C[C@@]21O[C@@H]1O[C@H](COC(=O)c2ccccc2)[C@@H](O[C@@H]2O[C@H](CO)[C@@H](O)[C@H](O)[C@H]2O)[C@H](O)[C@H]1O , and I need its recorded AP50.
Response: 0.43
